Source: patent US8802711B2

biological target: human TRPV1 receptor (hTRPV1) (Homo sapiens (Human)); assay: Capsaicin activation assay (FLIPR intracellular Ca2+); format: cell-based; conditions: Table 1; inhibition of capsaicin-induced intracellular Ca2+ increase, HEK293 cells expressing human TRPV1; read-out: hTRPV1 cap IC50
Provide the recorded pIC50 for the entries that follow.
On this scale, pIC50 is minus log10 of a concentration expressed in M (mol/L).

Please give measured pIC50 of the following entry: CN1C(=O)CCc2c(NC(=O)N[C@@H]3CC[C@@H](c4ccccc4F)C3)cccc21 [Example 99]
7.80

Please give measured pIC50 of the following entry: O=C(Nc1cccc2c1C[C@H](O)C2)N[C@@H]1CC[C@@H](c2cccc(F)c2)C1 [Example 90]
6.96

Please give measured pIC50 of the following entry: O=C(Nc1ccc2c(c1)NC(=O)C(N1CCOCC1)C2)N[C@@H]1CC[C@H](c2ccccc2)C1 (stereo partly shown) [Example 142]
6.94

Please give measured pIC50 of the following entry: O=C(Nc1cccc2c1C[C@@H](O)C2)N[C@@H]1CC[C@H](c2ccccc2)C1 [Example 2]
7.54

Please give measured pIC50 of the following entry: O=C(Nc1cccc2c1C[C@H](O)C2)N[C@@H]1CC[C@@H](c2ccccc2)C1 [Example 15]
6.75

Please give measured pIC50 of the following entry: O=C(Nc1cccc2[nH]ncc12)N[C@H]1CC[C@@H](c2ccc(C(F)(F)F)cc2)C1 [Example 43]
6.66

Please give measured pIC50 of the following entry: O=C(Nc1cccc2[nH]ncc12)N[C@H]1CC[C@@H](c2ccccc2)C1 [Example 28]
7.19

Please give measured pIC50 of the following entry: Cc1cc2c(NC(=O)N[C@@H]3CC[C@H](c4nc(C)cs4)C3)c(F)ccc2cn1 [Example 132]
6.49

Please give measured pIC50 of the following entry: CC(C)(C)c1ccc(C2CCC(NC(=O)Nc3cccc4[nH]ncc34)C2)cc1 (stereo not shown) [Example 37]
6.37

Please give measured pIC50 of the following entry: O=C(Nc1cccc2c1C[C@@H](O)C2)N[C@@H]1CC[C@@H](c2cccc(F)c2)C1 [Example 86]
7.10

Please give measured pIC50 of the following entry: Cc1cc2c(NC(=O)N[C@@H]3CC[C@H](c4ccccc4F)C3)c(F)ccc2cn1 [Example 70]
8.25

Please give measured pIC50 of the following entry: O=C1CCc2ccc(NC(=O)N[C@H]3CC[C@H](c4ccccc4)C3)cc2N1 [Example 12]
6.68

Please give measured pIC50 of the following entry: O=C(Nc1cccc2[nH]ncc12)N[C@H]1CC[C@H](c2ccccc2F)C1 [Example 62]
8.00

Please give measured pIC50 of the following entry: C[C@@]1(c2ccccc2)CC[C@@H](NC(=O)Nc2cccc3[nH]ncc23)C1 [Example 73]
6.79

###

Provide the recorded IC50 for the entries that follow.
target: human TRPV1 receptor (hTRPV1) (Homo sapiens (Human), UniProt Q8NER1); test: Capsaicin activation assay (FLIPR intracellular Ca2+); assay type: cell-based; details: Table 1; inhibition of capsaicin-induced intracellular Ca2+ increase, HEK293 cells expressing human TRPV1; read-out: hTRPV1 cap IC50
Sequence (Q8NER1 whole entry): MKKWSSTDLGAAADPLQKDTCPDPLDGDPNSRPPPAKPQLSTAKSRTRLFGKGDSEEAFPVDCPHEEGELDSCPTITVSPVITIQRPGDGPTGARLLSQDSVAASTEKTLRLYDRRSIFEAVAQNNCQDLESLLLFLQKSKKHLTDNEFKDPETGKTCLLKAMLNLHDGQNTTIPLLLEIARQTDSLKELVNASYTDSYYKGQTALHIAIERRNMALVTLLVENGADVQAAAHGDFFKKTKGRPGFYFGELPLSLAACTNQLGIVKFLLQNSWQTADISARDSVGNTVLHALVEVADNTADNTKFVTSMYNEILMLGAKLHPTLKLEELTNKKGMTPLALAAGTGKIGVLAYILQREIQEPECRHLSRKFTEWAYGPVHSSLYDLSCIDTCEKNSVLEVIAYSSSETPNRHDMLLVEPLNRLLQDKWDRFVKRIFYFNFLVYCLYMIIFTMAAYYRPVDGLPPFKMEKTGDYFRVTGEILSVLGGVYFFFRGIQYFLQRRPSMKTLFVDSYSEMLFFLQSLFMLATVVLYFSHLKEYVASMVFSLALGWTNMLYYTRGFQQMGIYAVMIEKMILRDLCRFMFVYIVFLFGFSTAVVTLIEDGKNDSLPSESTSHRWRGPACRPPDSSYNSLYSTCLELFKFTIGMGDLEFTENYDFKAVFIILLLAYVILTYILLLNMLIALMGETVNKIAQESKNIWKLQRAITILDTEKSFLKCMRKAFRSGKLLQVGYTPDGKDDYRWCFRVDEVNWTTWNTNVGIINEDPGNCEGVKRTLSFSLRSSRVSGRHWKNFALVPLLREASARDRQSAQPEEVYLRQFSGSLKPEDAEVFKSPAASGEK
Kindly answer with a numeric value in nM, unit omitted.

Please give measured IC50 of the following entry: O=C(Nc1cccc2[nH]ncc12)N[C@@H]1C[C@H](c2ccccc2)[C@@H]2[C@H]1C2(F)F
1340

Please give measured IC50 of the following entry: O=C(Nc1cccc2c1CCC2)N[C@H]1CC[C@H](c2ccccc2)C1
1370

Please give measured IC50 of the following entry: O=C(Nc1cccc2[nH]ncc12)N[C@H]1CC[C@H](c2ccc(C(F)(F)F)cc2)C1
311

Please give measured IC50 of the following entry: O=C(Nc1ccc2c(c1)NC(=O)N(CCO)C2)N[C@H]1CC[C@@H](c2cccc(F)c2)C1
930

Please give measured IC50 of the following entry: Cc1cc2c(NC(=O)N[C@H]3CC[C@@H](c4nc(C)cs4)C3)c(F)ccc2cn1
1790

Please give measured IC50 of the following entry: O=C(Nc1ccc2c(c1)NC(=O)N(CCO)C2)N[C@H]1CC[C@@H](c2ccccc2)C1
7700
